Target: human HSD-1 (recombinant HSD-1) (Homo sapiens, UniProt P28845)
Construct: made in house
Sequence (P28845 whole entry): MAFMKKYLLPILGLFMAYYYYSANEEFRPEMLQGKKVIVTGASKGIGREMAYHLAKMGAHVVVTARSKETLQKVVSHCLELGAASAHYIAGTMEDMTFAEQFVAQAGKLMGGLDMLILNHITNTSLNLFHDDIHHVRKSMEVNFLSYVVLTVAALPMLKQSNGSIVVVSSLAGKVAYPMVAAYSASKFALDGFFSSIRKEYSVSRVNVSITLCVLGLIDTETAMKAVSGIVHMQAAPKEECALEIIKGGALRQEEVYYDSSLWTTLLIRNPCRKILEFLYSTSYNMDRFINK
Assay: HSD-1 (hydroxysteroid dehydrogenase 1) activity inhibitory action in vitro, SPA, conversion of cortisone to cortisol
Type: biochemical
Conditions: recombinant human HSD-1 expressed using baculovirus system, 10 nM 3H cortisone, 500 μM NADPH, room temperature 90 to 120 min, read-out: hHSD1 (IC50 (nM))
attribute_measured: IC50

Given item O=C(OCCO)N1CCC(n2ncc(C(=O)N3CC[C@@H](c4ccccc4C(F)(F)F)C3)c2C2CC2)CC1 , the value recorded as its IC50 is < 30 nM
